Reported Ki, Histamine H1 receptor (Cavia porcellus).
Express the result in µM but write the number alone.

O=C(CCCCN1CCC(c2noc3cc(F)ccc23)CC1)c1cc2c3c(c1)CCN3C(=O)CC2 : 0.63

Turning to the following compound.
[Q] Specify Ki for O=C1CCc2cc(C(O)CCCN3CCC(c4noc5cc(F)ccc45)CC3)cc3c2N1CC3 (configuration not stated) , system Histamine H1 receptor (Cavia porcellus).
[A] 0.339

###

# key: entry, value: selectivity ratio
- Protocol Text: Therapeutic index, ratio of ED50 for catalepsy in Kunming mouse to ED50 for MK-801-induced hyperactivity in Kunming mouse
- Assay type: toxicity, organism-based
- Reported Conditions: in vivo, read-out: Ratio ED50
Keep it simple and answer with nothing but the number.

O=C(CCCN1CCC(O)(c2ccc(Cl)cc2)CC1)c1ccc(F)cc1 : 0.75

We now examine a further molecule.
[Q] Output selectivity ratio of "O=C(CCCCN1CCC(c2noc3cc(F)ccc23)CC1)c1cc2c3c(c1)CCN3C(=O)CC2"
[A] 302

# credit: ChEMBL document CHEMBL4270672
